# experimental_target: Peroxisome proliferator-activated receptor gamma (Homo sapiens) (UniProt P37231)
# Sequence (P37231 whole entry, looked up): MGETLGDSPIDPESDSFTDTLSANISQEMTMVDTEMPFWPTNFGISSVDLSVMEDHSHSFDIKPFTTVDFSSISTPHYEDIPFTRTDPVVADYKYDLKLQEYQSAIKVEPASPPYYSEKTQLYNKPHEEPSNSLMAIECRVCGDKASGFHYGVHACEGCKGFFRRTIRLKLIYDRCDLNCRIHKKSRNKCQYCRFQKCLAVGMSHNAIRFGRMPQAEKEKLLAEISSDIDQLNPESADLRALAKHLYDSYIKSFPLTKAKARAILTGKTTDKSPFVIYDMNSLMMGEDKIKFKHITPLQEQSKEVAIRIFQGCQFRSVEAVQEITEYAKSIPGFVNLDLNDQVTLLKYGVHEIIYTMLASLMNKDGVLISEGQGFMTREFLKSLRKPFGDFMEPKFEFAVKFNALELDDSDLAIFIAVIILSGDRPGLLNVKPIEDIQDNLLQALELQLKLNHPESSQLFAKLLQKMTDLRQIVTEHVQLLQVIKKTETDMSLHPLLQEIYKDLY
# assay_name: qHTS assay to identify small molecule antagonists of the peroxisome proliferator-activated receptor gamma (PPARg) signaling pathway (AID 743191); further: nearly all actives have a fitted effect of over 30% in size
# recorded_conditions: HEK293H PPARg-UAS-bla, beta-lactamase ratio, antagonist, 17 h; series mostly up to 62.6 µM
Inconclusive results are not listed. Activity calls are given as the source filed them. The call rests on the fitted dose curve.
Your answer must be one of the following: 1.0 for active, 0.0 for inactive

Known results for compounds:
CC(C)NC(=O)c1ccccc1N
0.0
CC(C)=CCCC(C)C=O (stereo not drawn)
0.0

API: the following record is the query input.
Query block: GET /call?item= "Nc1ccccc1Nc1ccccc1" returns the recorded outcome of this test.
Result block: 1.0

* * *

# experimental_target: Estrogen receptor (Homo sapiens)
# assay_name: qHTS assay to identify small molecule agonists of the estrogen receptor alpha (ER-alpha) signaling pathway using the BG1 cell line (AID 743079); further: nearly all actives have a fitted effect of over 20% in size
# recorded_conditions: BG1Luc4E2 cells, ERE-luciferase agonist, 22 h; series mostly up to 70.3 µM
Results filed as inconclusive are left out. Activity calls are given as the source filed them. The call rests on the fitted dose curve; in most records, active means well fitted activation curve with a large enough effect in the repeat runs; inconclusive means weak or mixed curves, or effect the other way; inactive means no such curve, though single readings can be large or run the other way.
// one of yes for active, no for inactive, no free text

Oc1ccc(Oc2ccccc2)cc1
yes
C/C(=C(\CCO)SS/C(CCO)=C(\C)N(C=O)Cc1cnc(C)nc1N)N(C=O)Cc1cnc(C)nc1N
no

Now look at this one.
Query block: Per the records of this test, what outcome belongs to "SCCOCCOCCS" ?
Result block: no

* * *

# assay_name: A CellTox Green Cytotoxicity Assay to monitor cytotoxicity in HepG2 cells - 16 hour (AID 1224876); further: nearly all actives have a fitted effect of over 45% in size
# recorded_conditions: CellTox Green fluorescence; series mostly up to 76.8 µM
Inconclusive results are not listed. Activity calls are given as the source filed them. The call rests on the fitted dose curve; in most records, active means well fitted activation curve with a large enough effect in the repeat runs; inconclusive means weak or mixed curves; inactive means flat fitted curve, though single readings scatter.
Returns: one label drawn from active, inactive

Sample answers from the record:
CCCCCCCCCCCCSC#N
inactive
CC1=C(C)C(=O)C(C(CCCCCC(=O)O)c2ccccc2)=C(C)C1=O (stereo not drawn)
inactive

Query block: What is the recorded call for this compound in the test? "NC(=O)c1ccccc1C(N)=O"
Result block: active

* * *

# assay_name: qHTS assay to identify small molecule antagonists of the thyroid receptor (TR) signaling pathway - cell viability counter screen (AID 743064); further: nearly all actives have a fitted effect of over 50% in size
# recorded_conditions: GH3.TRE-Luc viability, CellTiter-Fluor, 24 h; series mostly up to 70.3 µM
Results filed as inconclusive are left out. Active and inactive are the calls of the source. The call rests on the fitted dose curve; in most records, active means well fitted cell-killing curve with a large enough effect in the repeat runs; inconclusive means weak or mixed curves, or effect the other way; inactive means no such curve, though single readings can be large or run the other way.
Lab note: assign the record to one of active, inactive

O=c1[nH][nH]c2ccccc12
inactive

Query block: Hi, sorry to bother you, what did the test record for "O=C1C=CCCC1" ?
Result block: inactive

Query block: Same again, this time with "CO[C@@H]1[C@@H](O[C@@H]2O[C@H](C)[C@@H](O[C@H]3C[C@@](C)(O)[C@@H](O)[C@H](C)O3)[C@H](N(C)C)[C@H]2O)[C@@H](CC=O)C[C@@H](C)[C@@H](O[C@@H]2CC[C@H](N(C)C)[C@@H](C)O2)/C=C/C=C/C[C@@H](C)OC(=O)C[C@H]1OC(C)=O"
Result block: active

Query block: How about this compound: "CCCCOc1ccc(N)cc1"
Result block: inactive

Query block: Note, next up: "CC(=O)c1ccc(Cl)c(Cl)c1Cl"
Result block: inactive

* * *

# assay_name: qHTS RealTime-Glo MT Cell Viability Assay in HEK293 cells - 32 hour (AID 1224868); further: top concentration of the series differs between compounds; nearly all actives have a fitted effect of over 50% in size
# recorded_conditions: RealTime-Glo luminescence; series mostly up to 76.8 µM
Inconclusive results are not listed. Activity calls are given as the source filed them. Calls come from the whole dose curve; as a rule, active = well fitted cell-killing curve with a large enough effect in the repeat runs; inconclusive = weak or mixed curves, or effect the other way; inactive = flat fitted curve, though single readings scatter.
// classify into Y = active, N = inactive

Cc1ccc2c(Cl)cc(Cl)c(O)c2n1
N
CC(O)C(C)O (centres undefined)
N
CCC(C)C1N=C(C)C(C)S1 (centres undefined)
N

Query block: Test call for this compound, please: "CC(C)=CCC[C@H](C)CCO"
Result block: N

Query block: Would you kindly repeat that for "O=C(O)c1ccc(O)c(O)c1" ?
Result block: N
